Target: T1, BCMA on cells (293T cells transfected with BCMA; H929, MM.1S and U266 cell lines expressing BCMA) (human, UniProt Q02223 1-184)
T1 construct: H929, MM.1S and U266 carry the native protein; also called B-cell Maturation Antigen; TNFRSF17
T1 sequence: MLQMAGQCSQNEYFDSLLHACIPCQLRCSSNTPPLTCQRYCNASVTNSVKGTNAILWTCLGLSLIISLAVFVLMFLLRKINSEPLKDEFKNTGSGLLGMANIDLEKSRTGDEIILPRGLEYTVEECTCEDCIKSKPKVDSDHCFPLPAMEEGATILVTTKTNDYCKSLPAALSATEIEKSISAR
Assay: flow cytometry, 293T cells transfected with BCMA, above parental 293T background
Would you please tag the item Criterion met when its Positive (%) is 50% or above, and Criterion not met when it is below?

Worked cases, answers included:
SCT-Aa16(h/h) (antibody, V domains shown, Full IgG format, chimeric: human IgG1 heavy chain constant region, human kappa light chain constant region) VH: EVQLQQSGPELVKPGASVKMSCKGSGYTFTNYIMHWVKQKPGQGLEWIGYIIPYNDNTKYNEKFKGKATLTSDKSSSTAYMELSSLTSEDSAVYYCATYEYDVGLDYWGQGTTLTVSS VL: DLQMTQTTSSLSASLGDRVTISCSARQGIVNYLNWYQQKPDGTVKLLIYNTSSLHSGVPSRFSGSGSGTDYSLTISNLEPEDIATYYCQQYSKLPWTFGGGTKLEIK = Criterion met
SCT-Aa02(h/h) (antibody, V domains shown, Full IgG format, chimeric: human IgG1 heavy chain constant region, human kappa light chain constant region) VH: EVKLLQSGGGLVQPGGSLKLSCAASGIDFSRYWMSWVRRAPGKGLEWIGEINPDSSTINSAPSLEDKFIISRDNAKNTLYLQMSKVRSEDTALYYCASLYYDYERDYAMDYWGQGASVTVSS VL: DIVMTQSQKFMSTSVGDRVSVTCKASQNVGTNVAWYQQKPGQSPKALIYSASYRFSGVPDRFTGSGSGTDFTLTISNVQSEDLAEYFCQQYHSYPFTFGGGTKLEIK = Criterion met
SCT-Aa01(m/m) (antibody, V domains shown, Full IgG format: mouse IgG1 heavy chain constant region, mouse kappa light chain constant region) VH: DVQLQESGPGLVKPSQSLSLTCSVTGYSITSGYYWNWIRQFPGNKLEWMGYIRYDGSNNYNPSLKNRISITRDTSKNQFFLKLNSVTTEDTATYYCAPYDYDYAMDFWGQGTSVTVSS VL: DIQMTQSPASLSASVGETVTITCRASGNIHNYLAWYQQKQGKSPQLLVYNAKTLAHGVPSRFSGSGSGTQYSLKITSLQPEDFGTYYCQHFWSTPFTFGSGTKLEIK = Criterion not met

From here, focus on the item given below.
Query: Please indicate if the recorded Positive (%) for SCT-Aa09(m/m) (antibody, V domains shown, Full IgG format: mouse IgG1 heavy chain constant region, mouse kappa light chain constant region) VH: QVQLQQSDAELVKPGASVKISCKVSGYTFTDHTIHWMKQRPEQGLEWIGYFYPRDDNTKYNEKFKGKATLTADRSSSTAYMQLNSLTSEDSAVYFCARWDYEGFDYWGQGTTLTVSS VL: DIVMTQSPATLSVTPGDRVSLSCRASQSIRDYLHWYQQKSHESPRLLIKYASQSISGIPSRFSGSGSGSDFTLSINSVEPEDVGVYYCQNGHSFPPTFGSGTKLEIK meets or exceeds 50%.
Result: Criterion not met

From: patent US20210332145A1
